Reference source for all entries: ChEMBL document CHEMBL5576081

target: Epidermal growth factor receptor (Homo sapiens, UniProt P00533, L858R/T790M); assay: Inhibition of EGFR L858R/T790M (unknown origin)
Sequence (P00533 25-1210 T790M/L858R limits assumed): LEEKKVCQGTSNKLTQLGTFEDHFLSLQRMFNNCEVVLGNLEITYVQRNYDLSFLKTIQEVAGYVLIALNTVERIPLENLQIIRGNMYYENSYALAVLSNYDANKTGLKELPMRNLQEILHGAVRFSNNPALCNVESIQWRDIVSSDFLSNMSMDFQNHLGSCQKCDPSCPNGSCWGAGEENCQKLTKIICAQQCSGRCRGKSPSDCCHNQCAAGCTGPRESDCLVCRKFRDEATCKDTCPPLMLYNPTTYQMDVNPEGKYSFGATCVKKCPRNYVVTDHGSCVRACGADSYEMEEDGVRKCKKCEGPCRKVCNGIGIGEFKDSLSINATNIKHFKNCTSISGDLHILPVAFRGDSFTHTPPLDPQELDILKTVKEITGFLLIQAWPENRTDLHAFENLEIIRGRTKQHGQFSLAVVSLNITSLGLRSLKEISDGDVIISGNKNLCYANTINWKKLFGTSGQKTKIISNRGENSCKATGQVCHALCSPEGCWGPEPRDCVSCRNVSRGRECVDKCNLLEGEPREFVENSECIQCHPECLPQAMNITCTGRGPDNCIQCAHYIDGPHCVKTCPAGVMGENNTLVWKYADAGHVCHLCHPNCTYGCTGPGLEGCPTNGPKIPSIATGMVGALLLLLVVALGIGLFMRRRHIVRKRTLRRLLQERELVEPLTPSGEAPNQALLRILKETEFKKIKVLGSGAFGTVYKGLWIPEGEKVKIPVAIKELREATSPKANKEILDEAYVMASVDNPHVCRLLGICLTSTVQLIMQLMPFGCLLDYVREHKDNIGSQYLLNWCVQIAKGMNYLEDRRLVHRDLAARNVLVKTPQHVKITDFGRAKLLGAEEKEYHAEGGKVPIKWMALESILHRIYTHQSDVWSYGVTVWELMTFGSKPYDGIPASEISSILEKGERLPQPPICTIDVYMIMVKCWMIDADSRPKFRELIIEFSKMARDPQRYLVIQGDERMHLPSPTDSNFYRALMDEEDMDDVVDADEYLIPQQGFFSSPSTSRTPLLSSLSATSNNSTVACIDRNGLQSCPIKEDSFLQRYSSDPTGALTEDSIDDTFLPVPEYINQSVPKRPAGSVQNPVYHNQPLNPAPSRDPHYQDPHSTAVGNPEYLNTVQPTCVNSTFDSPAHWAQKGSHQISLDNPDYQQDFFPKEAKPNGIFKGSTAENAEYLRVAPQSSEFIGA
Recorded IC50, one value per entry.
Numbers only; they are read as nM.

INSERT INTO measurements (molecule, assay_metric, unit_symbol, recorded_result) VALUES
  ('C=CC(=O)Nc1cc(Nc2nccc(Nc3ccn(C)n3)n2)c(OC)cc1N(C)CCN(C)CC(=O)OC', 'IC50', 'nM', 42.3),
  ('C#CCN(C)CCN(C)c1cc(OC)c(Nc2nccc(Nc3ccn(C)n3)n2)cc1NC(=O)C=C', 'IC50', 'nM', 8.58);

Let us move to another entry and its IC50.
q: State its IC50 for this molecule: "COc1cc(N(C)CCN(C)C)c(NC(=O)c2ccnc(Cl)c2)cc1Nc1nccc(-c2cn(CCCO)c3ccccc23)n1"
a: 137
